Value source: patent US20240199639A1

test: Kinetic solubility of Soluplus ASDs with different drug loadings in FaSSIF at 37° C.; type: physicochemical; conditions: thermodynamic from solid, Table 8, FaSSIF, 90 min, read-out: Solubility (μg/mL) 90 min
observationType: solubility at 90 min (µg/mL)
Form entry: value (µg/mL) — number only.

Challenge: Look up and state reported solubility at 90 min for O=[N+]([O-])c1cn2c(n1)OC[C@@H](OCc1ccc(OC(F)(F)F)cc1)C2
Response given: 23.6

* * *

Assay: Kinetic solubility of nano suspension after lyophilization in FaSSIF at 37° C.
Format: physicochemical
Details: thermodynamic from solid, Table 20, FaSSIF, 15 min, read-out: Solubility (μg/mL) 15 min
Experimental: 10 mL of FaSSIF was added into 2 vials containing 2 batches of nano suspension after Lyophilization (equivalent to 2 mg API), then the suspensions were shaken using a thermomixer at 37° C. and 100 rpm, 300 μL of suspensions were withdrawn at 15, 30, 45, 60, 90, 120 and 180 mins. The samples of suspensions were centrifuged at 14000 rpm for 10 min. The supernatants were diluted with the diluent (ACN/water, 50/50) and analyzed by UPLC.
observationType: solubility at 15 min (µg/mL)
Form entry: value (µg/mL) — number only.

Challenge: Look up and state reported solubility at 15 min for O=[N+]([O-])c1cn2c(n1)OC[C@@H](OCc1ccc(OC(F)(F)F)cc1)C2
Response given: 31.7
